Sourced from the supplement of paper PMC10567573

B1: FUNDC2 (parent)
chain: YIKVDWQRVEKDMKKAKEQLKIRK

Variants of: B1
Assay: protein stability index of a GFP-peptide fusion (GPS, HEK-293T) (PSI 1-6); higher = more stable;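 further: lentivirally expressed fusions sorted by FACS into six bins by GFP to DsRed ratio, PSI derived from sequencing read proportions per bin multiplied by bin number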
Conditions: c terminus: a fixed tail appended
protein stability index values for the variants below.
measured.quantity: protein stability index

| mutation.label | measured.quantity | endpoint.value |
| --- | --- | --- |
| R23M | protein stability index | 1.97 |
| M13Y | protein stability index | 2.14 |
| R8T | protein stability index | 2.21 |
| M13D | protein stability index | 1.83 |
| D5K | protein stability index | 2.1 |
| D5R | protein stability index | 1.78 |
| E10G | protein stability index | 1.09 |
| L20C | protein stability index | 2 |
| L20N | protein stability index | 1.49 |
| K24P | protein stability index | 1.6 |
| K24W | protein stability index | 1.69 |
| Q19A | protein stability index | 1.86 |
| K15L | protein stability index | 2.19 |
| K3G | protein stability index | 2.54 |
| W6D | protein stability index | 3.77 |
| E10K | protein stability index | 1.73 |
| Q7H | protein stability index | 1.45 |
| K3D | protein stability index | 4.58 |
| I2K | protein stability index | 3.35 |
| R23V | protein stability index | 2.26 |
| K15C | protein stability index | 2.35 |
| K15E | protein stability index | 1.55 |
| K14N | protein stability index | 1.61 |
| K24F | protein stability index | 1.52 |
| D12Q | protein stability index | 2.63 |
| Y1S | protein stability index | 3.11 |
| A16D | protein stability index | 1.78 |
| V9W | protein stability index | 1.99 |
| A16P | protein stability index | 2.13 |
| R23I | protein stability index | 2.79 |
| R8H | protein stability index | 2.11 |
| Q19D | protein stability index | 1.98 |
| K24H | protein stability index | 2.12 |
| K11H | protein stability index | 1.95 |
| W6R | protein stability index | 2.97 |
| I22W | protein stability index | 2.11 |
| V4C | protein stability index | 1.56 |
| K24R | protein stability index | 1.12 |
| K24L | protein stability index | 2.16 |
| E10M | protein stability index | 1.73 |
| R23H | protein stability index | 1.9 |
| K11D | protein stability index | 2.06 |
| I2Y | protein stability index | 3 |
| A16R | protein stability index | 2.08 |
| R23Y | protein stability index | 1.67 |
| Y1R | protein stability index | 3.6 |
